- TESTED SYSTEM: T1, GST-NOS1 PDZ domain 1 (Homo sapiens (Human)), P29475
- T1 chain: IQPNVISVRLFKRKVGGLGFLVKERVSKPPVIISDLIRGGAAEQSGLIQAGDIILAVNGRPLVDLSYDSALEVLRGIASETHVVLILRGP
- PROCEDURE DETAILS: G' assay; also: key of the grades not given here
Item-by-item account of Classification
Number only, in A450 class; omit the unit.

Known Classification results, listed for orientation:
                                     binder  number
0  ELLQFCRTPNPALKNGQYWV (modifications not checked) [CSPG4 (chondroitin sulfae proteoglycan 4, melanoma-associated)]       2
1  STDNLVRPFMDTLASHQLYI (modifications not checked) [presenilin-2]       1
2  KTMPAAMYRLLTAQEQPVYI (modifications not checked) [MINT-1]       4
3  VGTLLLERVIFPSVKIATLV (modifications not checked) [AdenoE4 typ9]       5

Here is another binder to look at.
Value lookup for Classification; key = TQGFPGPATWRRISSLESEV (modifications not checked) [NMDA Glutamate Receptor 2C (cysteine-free)]
1
